Reported koff values for a set of binders
# ASSAYED_SYSTEM: T1, human MAdCAM (human, UniProt Q13477 19-317, limits assumed)
# T1 construct: also called huMAdCAM; human MAdCAM-1
# T1 sequence (looked up): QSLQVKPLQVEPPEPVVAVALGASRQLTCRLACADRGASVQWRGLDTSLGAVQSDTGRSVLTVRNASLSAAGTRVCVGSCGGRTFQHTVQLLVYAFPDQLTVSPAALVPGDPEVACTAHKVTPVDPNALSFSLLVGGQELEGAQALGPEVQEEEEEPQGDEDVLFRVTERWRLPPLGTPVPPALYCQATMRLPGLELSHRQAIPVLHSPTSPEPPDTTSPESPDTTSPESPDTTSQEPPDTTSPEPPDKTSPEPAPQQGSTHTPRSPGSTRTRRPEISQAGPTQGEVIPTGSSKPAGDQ
# METHOD_SUMMARY: BLI (Octet), binder on anti-human Fc tips
Quick reminder: number only, in s⁻¹, skip the unit.

Below, 2 binders whose answers are already recorded.
BINDER	UNIT_LABEL	VALUE_REPORTED
MIAB177 (antibody, V domains shown, tested with human Fc; also called MIAB177-001) VH: EVQLLESGGGLVQPGGSLRLSCAASGFTFSDFWMHWVRQAPGKGLEWVSAISGSGGSTYYADSVKGRFTISRDNSKNTLYLQMNSLRAEDTAVYYCARDRPYYYYMDVWGKGTTVTVSS VL: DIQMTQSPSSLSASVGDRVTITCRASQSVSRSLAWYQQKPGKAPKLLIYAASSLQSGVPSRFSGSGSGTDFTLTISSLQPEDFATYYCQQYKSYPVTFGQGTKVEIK	s⁻¹	0.0851
MIAB178 (antibody, V domains shown, tested with human Fc; also called MIAB178-001) VH: EVQLLESGGGLVQPGGSLRLSCAASGFTFSSYWMHWVRQAPGKGLEWISAISGSSGSTYYADSVKGRFTISRDNSKNTLYLQMNSLRAEDTAVYYCARDRPYYYYMDVWGKGTTVTVSS VL: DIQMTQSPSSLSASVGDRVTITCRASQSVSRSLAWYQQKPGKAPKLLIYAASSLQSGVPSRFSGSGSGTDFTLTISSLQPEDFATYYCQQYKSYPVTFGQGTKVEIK	s⁻¹	0.22

Would you kindly look at the next entry?
Endpoint output: koff of MIAB184 (antibody, V domains shown, tested with human Fc; also called MIAB184-001) VH: EVQLLESGGGLVQPGGSLRLSCAASGFTFSSYWMHWVRQAPGKGLEWVSAISGSGGSTYYADSVKGRFTISRDNSKNTLYLQMNSLRAEDTAVYYCARDRPYYYYMDVWGKGTTVTVSS VL: DIQMTQSPSSLSASVGDRVTITCRASQSISSSLAWYQQKPGKAPKLLIYAASSLQSGVPSRFSGSGSGTDFTLTISSLQPEDFATYYCQQYKSYPVTFGQGTKVEIK . Value?
0.0818
